Biological target: T1, human CD11a (human, UniProt P20701 26-1170)
T1 construct: whole, on cells; On Jurkat T-cells or human peripheral blood mononuclear cells, as part of LFA-1; also called CD11a on Jurkat cells; alpha subunit of LFA-1
T1 sequence (P20701 26-1170): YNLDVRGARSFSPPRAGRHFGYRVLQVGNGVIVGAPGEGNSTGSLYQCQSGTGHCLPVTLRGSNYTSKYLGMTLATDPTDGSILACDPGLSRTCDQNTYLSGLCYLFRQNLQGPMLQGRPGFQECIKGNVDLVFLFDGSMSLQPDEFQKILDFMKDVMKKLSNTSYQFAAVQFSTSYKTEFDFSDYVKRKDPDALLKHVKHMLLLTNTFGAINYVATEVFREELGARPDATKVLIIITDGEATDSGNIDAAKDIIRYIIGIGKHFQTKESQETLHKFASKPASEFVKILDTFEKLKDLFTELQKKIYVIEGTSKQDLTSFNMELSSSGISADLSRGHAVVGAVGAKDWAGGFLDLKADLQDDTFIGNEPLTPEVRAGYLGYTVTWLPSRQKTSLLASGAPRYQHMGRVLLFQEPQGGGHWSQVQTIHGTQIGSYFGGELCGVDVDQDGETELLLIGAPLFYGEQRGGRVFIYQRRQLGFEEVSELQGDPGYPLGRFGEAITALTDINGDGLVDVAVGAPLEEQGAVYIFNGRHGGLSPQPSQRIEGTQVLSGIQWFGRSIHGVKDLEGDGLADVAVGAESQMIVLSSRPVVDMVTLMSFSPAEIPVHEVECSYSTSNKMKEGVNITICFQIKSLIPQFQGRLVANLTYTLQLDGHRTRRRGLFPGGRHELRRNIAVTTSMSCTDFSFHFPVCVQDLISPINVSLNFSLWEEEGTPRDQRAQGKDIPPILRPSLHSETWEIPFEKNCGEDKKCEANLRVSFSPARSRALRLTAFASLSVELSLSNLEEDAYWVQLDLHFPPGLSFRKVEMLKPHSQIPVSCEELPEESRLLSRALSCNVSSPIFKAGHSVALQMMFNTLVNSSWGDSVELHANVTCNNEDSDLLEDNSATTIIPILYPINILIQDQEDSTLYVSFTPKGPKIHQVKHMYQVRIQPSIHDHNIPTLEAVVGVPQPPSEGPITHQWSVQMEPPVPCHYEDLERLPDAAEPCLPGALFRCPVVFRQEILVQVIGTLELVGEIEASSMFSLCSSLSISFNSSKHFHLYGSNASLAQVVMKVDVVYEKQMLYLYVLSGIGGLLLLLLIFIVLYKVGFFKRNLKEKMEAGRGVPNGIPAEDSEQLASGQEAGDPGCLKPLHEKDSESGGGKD
Experiment: FACScan, Jurkat cells
Everything with Var.EC50/HuIgG1 EC50 lower than 5 ratio is 0.0; everything else, including exactly 5 ratio, is 1.0.

Q: // inclusive: Var.EC50/HuIgG1 EC50 at least 5 ratio? input: HuIgG1 mutant LysH73Arg (antibody, V domains shown, HuIgG1 mutant, human IgG1; Kabat numbering) VH: EVQLVESGGGLVQPGGSLRLSCAASGYSFTGHWMNWVRQAPGKGLEWVGMIHPSDSETRYNQKFKDRFTISVDRSKNTLYLQMNSLRAEDTAVYYCARGIYFYGTTYFDYWGQGTLVTVSS VL: DIQMTQSPSSLSASVGDRVTITCRASKTISKYLAWYQQKPGKAPKLLIYSGSTLQSGVPSRFSGSGSGTDFTLTISSLQPEDFATYYCQQHNEYPLTFGQGTKVEIK
Ans: 0.0

Q: // inclusive: Var.EC50/HuIgG1 EC50 at least 5 ratio? input: HuIgG1 mutant TyrL94Ala (antibody, V domains shown, HuIgG1 mutant, human IgG1; Kabat numbering) VH: EVQLVESGGGLVQPGGSLRLSCAASGYSFTGHWMNWVRQAPGKGLEWVGMIHPSDSETRYNQKFKDRFTISVDKSKNTLYLQMNSLRAEDTAVYYCARGIYFYGTTYFDYWGQGTLVTVSS VL: DIQMTQSPSSLSASVGDRVTITCRASKTISKYLAWYQQKPGKAPKLLIYSGSTLQSGVPSRFSGSGSGTDFTLTISSLQPEDFATYYCQQHNEAPLTFGQGTKVEIKR
Ans: 1.0

Q: // inclusive: Var.EC50/HuIgG1 EC50 at least 5 ratio? input: HuIgG1 mutant AsnL92Ala (antibody, V domains shown, HuIgG1 mutant, human IgG1; Kabat numbering) VH: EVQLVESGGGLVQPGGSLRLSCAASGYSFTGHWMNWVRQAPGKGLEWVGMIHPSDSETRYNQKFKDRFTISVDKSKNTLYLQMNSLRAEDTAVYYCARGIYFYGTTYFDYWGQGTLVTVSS VL: DIQMTQSPSSLSASVGDRVTITCRASKTISKYLAWYQQKPGKAPKLLIYSGSTLQSGVPSRFSGSGSGTDFTLTISSLQPEDFATYYCQQHAEYPLTFGQGTKVEIKR
Ans: 0.0

Q: // inclusive: Var.EC50/HuIgG1 EC50 at least 5 ratio? input: HuIgG1 mutant H3B (antibody, V domains shown, HuIgG1 mutant, human IgG1; Kabat numbering) VH: EVQLVESGGGLVQPGGSLRLSCAASGYSFTGHWMNWVRQAPGKGLEWVGMIHPSDSETRYNQKFKDRFTISVDKSKNTLYLQMNSLRAEDTAVYYCARGIYFYGAAAFDYWGQGTLVTVSS VL: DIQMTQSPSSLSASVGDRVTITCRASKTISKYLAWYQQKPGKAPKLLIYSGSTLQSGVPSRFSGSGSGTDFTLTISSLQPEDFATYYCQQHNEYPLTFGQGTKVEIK
Ans: 1.0

Q: // inclusive: Var.EC50/HuIgG1 EC50 at least 5 ratio? input: HuIgG1 mutant TyrH97Ala (antibody, V domains shown, HuIgG1 mutant, human IgG1; Kabat numbering) VH: EVQLVESGGGLVQPGGSLRLSCAASGYSFTGHWMNWVRQAPGKGLEWVGMIHPSDSETRYNQKFKDRFTISVDKSKNTLYLQMNSLRAEDTAVYYCARGIAFYGTTYFDYWGQGTLVTVSS VL: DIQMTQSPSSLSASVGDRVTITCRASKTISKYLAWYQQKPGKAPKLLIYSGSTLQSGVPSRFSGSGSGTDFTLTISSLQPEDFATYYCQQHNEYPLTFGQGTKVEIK
Ans: 1.0

This collection of values is drawn from patent US20040146507A1.
